Source of measurements: patent US20110145941A1

Quick list: Fold Increase per entry.
Biological target: T1, human TrkA receptor on the cell surface (human, UniProt P04629 33-796)
T1 construct: whole, on cells; PC12-hTrkA: high density; also called hTrkA; huTrkA
T1 sequence (P04629 33-796): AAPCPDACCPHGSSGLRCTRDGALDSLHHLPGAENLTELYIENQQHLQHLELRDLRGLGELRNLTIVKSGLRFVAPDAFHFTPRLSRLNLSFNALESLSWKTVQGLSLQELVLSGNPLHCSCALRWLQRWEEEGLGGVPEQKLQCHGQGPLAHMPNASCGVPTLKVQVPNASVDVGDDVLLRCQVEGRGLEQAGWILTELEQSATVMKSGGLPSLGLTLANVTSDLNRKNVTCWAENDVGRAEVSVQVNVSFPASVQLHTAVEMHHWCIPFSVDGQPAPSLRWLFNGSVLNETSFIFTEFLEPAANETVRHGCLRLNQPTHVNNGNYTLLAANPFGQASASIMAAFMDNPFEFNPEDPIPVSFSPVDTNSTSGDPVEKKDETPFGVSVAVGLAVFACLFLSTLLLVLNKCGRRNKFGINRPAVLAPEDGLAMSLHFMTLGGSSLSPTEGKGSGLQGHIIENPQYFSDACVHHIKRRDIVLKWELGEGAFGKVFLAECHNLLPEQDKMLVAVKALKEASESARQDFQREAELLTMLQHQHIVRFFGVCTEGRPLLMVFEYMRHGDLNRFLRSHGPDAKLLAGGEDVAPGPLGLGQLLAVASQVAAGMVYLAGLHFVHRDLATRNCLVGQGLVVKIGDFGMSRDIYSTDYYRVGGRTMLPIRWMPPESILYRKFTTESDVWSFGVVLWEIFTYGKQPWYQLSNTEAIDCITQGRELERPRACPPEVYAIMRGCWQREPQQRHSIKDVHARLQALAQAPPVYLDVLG
Experiment: flow cytometry on TF-1 cells, 4 µg/ml
Please give a number only; it is taken to be in fold.

| binder | Fold Increase [fold] |
| --- | --- |
| BXhVH2VL5 (antibody, human IgG1, V domains shown, Human IgG1 constant regions (IgG1 expression vectors); COS-7 supernatant; also called hVH2/hVL5) VH: EVQLLESGGGLVQPGGSLRLSCAASGFTFSTYTMSWVRQTPGKRLEWVAYISKGGGSTYYPDTVKGRFTISRDNSKNTLYLQMNSLRAEDTAVYYCAKGAMYGNDFFYPMDYWGQGTTVTVSS VL: QIVLTQSPATLSLSPGERATLSCSASSSVSYMHWYQQKPGQSPRLLIYTTSNLASGIPSRFSGSGSGTDYTLTISSLEPEDAADYYCHQWSSYPWTFGQGTKLEIK | 1.8 |
| HuMNACWOv (antibody, V domains shown, Variant of HuMNACWO whose heavy chain CDR3 is replaced with that of muMNACEP; also called hVHWOv/hVLWO; HuVHWOv/HuVLWO) VH: EVQLLESGGGLVQPGGSLRLSCAASGFTFSTYTMSWARQAPGKGLEWVAYISKGGGSTYYPDTVKGRFTISRDNSKNTLYLQMNSLRAEDSAVYYCARGAMYGNDFFYPMDYWGQGTLVTVSS VL: DIVLTQSPSSLSASVGDRVTITCSASSSVSYMHWYQQKPGQAPKLLIYTTSNLASGVPSRFSGSGSGTDYTLTISSLQPEDVATYYCHQWSSYPWTFGGGTKVEIK | 2.6 |

Could you now look at the following binder, please?
Bench note: what Fold Increase did BXhVH3VL3 (antibody, human IgG1, V domains shown, Human IgG1 constant regions (IgG1 expression vectors); also called hVH3/hVL3) VH: EVQLLESGGGLVQPGGSLRLSCAASGFTFSTYTMSWVRQAPGKRLEWVAYISKGGGSTYYPDTVKGRFTISRDNSKNTLYLQMNSLRAEDTAVYYCARGAMYGNDFFYPMDYWGQGTTVTVSS VL: QIVLTQSPATLSLSPGERATLSCSASSSVSYMHWYQQKPGQSPRLLIYTTSNLASGIPSRFSGSGSGTFYTLTISSLEPEDFAVYYCHQWSSYPWTFGGGTKLEIK show?
3.6
